Sourced from the supplement of paper PMC10307832

test system: NCI-H1355; assay: relative viability (nuclei count vs DMSO), 5 days (fraction); higher = more cells survive; details: first compound 4 µM
Exercise: state measured relative viability for each of the compounds provided.
One number for each entry.

compound: Clc1ccc(Nc2nnc(Cc3ccncc3)c3ccccc23)cc1 [Vatalanib] + O=C(CCCCCCC(=O)Nc1ccccc1)NO [Vorinostat] (partner 1 µM)
relative viability: 0.581
--
compound: C[C@@H]1CN(CC(=O)Nc2ccc3c(c2)Cc2cccc(-c4cc(=O)cc(N5CCOCC5)o4)c2S3)C[C@H](C)O1 + COc1cccc2cc(-c3nc([C@H]4CC[C@H](C(=O)O)CC4)n4ncnc(N)c34)[nH]c12 [OSI-027] (partner 0.5 µM)
relative viability: 0.335
--
compound: COc1cc(N2CCC(C(N)=O)CC2)ccc1Nc1nc(N)c(Cl)c(Nc2ccccc2S(=O)(=O)C(C)C)n1 [HG-5-88-01] + Nc1ncn([C@H]2C[C@H](O)[C@@H](CO)O2)c(=O)n1 [Decitabine] (partner 2 µM)
relative viability: 0.331

Here is the next item to consider.
Which relative viability reading was recorded for the compound Clc1ccc(Nc2nnc(Cc3ccncc3)c3ccccc23)cc1 [Vatalanib] + Cc1nc(NC(=O)N2CCC[C@H]2C(N)=O)sc1-c1ccnc(C(C)(C)C(F)(F)F)c1 [Alpelisib] (partner 2 µM) ? 0.711

---

test system: NCI-H1666; experiment: relative viability (nuclei count vs DMSO), 5 days (fraction); higher = more cells survive; conditions: first compound 0.1265 µM
Would you kindly list relative viability for each of these compounds?
Give bare numbers.

compound: COc1cc(N2CCC(C(N)=O)CC2)ccc1Nc1nc(N)c(Cl)c(Nc2ccccc2S(=O)(=O)C(C)C)n1 [HG-5-88-01] + O=C(c1cc(Cc2n[nH]c(=O)c3ccccc23)ccc1F)N1CCN(C(=O)C2CC2)CC1 [Olaparib] (partner 8 µM)
relative viability: 0.737
--
compound: Clc1ccc(Nc2nnc(Cc3ccncc3)c3ccccc23)cc1 [Vatalanib] + C[C@]1(O)C[C@@H](c2nc(-c3ccc4ccc(-c5ccccc5)nc4c3)c3c(N)nccn32)C1 [Linsitinib] (partner 1 µM)
relative viability: 0.891
--
compound: COc1cc(N2CCC(C(N)=O)CC2)ccc1Nc1nc(N)c(Cl)c(Nc2ccccc2S(=O)(=O)C(C)C)n1 [HG-5-88-01] + COc1cc2c(Oc3ccc(NC(=O)C4(C(=O)Nc5ccc(F)cc5)CC4)cc3F)ccnc2cc1OCCCN1CCOCC1 [Foretinib] (partner 0.25 µM)
relative viability: 1.06
--
compound: Clc1ccc(Nc2nnc(Cc3ccncc3)c3ccccc23)cc1 [Vatalanib] + Cc1nc(Nc2ncc(C(=O)Nc3c(C)cccc3Cl)s2)cc(N2CCN(CCO)CC2)n1 [Dasatinib] (partner 0.075 µM)
relative viability: 0.714
--
compound: C[C@@H]1CN(CC(=O)Nc2ccc3c(c2)Cc2cccc(-c4cc(=O)cc(N5CCOCC5)o4)c2S3)C[C@H](C)O1 + C[C@]1(O)C[C@@H](c2nc(-c3ccc4ccc(-c5ccccc5)nc4c3)c3c(N)nccn32)C1 [Linsitinib] (partner 1 µM)
relative viability: 0.908
--
compound: COc1cc(N2CCC(C(N)=O)CC2)ccc1Nc1nc(N)c(Cl)c(Nc2ccccc2S(=O)(=O)C(C)C)n1 [HG-5-88-01] + NC(=O)Nc1cc(-c2cccc(F)c2)sc1C(=O)N[C@H]1CCCNC1 [AZD7762] (partner 0.2 µM)
relative viability: 0.783
--
compound: Clc1ccc(Nc2nnc(Cc3ccncc3)c3ccccc23)cc1 [Vatalanib] + CS(=O)(=O)N1CCN(Cc2cc3nc(-c4cccc5[nH]ncc45)nc(N4CCOCC4)c3s2)CC1 [Pictilisib] (partner 1 µM)
relative viability: 0.334
--
compound: COc1cc(N2CCC(C(N)=O)CC2)ccc1Nc1nc(N)c(Cl)c(Nc2ccccc2S(=O)(=O)C(C)C)n1 [HG-5-88-01] + CC(=O)Nc1cccc(-n2c(=O)n(C3CC3)c(=O)c3c(Nc4ccc(I)cc4F)n(C)c(=O)c(C)c32)c1 [Trametinib] (partner 0.02 µM)
relative viability: 0.918
--
compound: Clc1ccc(Nc2nnc(Cc3ccncc3)c3ccccc23)cc1 [Vatalanib] + Cc1nc(NC(=O)N2CCC[C@H]2C(N)=O)sc1-c1ccnc(C(C)(C)C(F)(F)F)c1 [Alpelisib] (partner 2 µM)
relative viability: 0.934
--
compound: COc1cc(N2CCC(C(N)=O)CC2)ccc1Nc1nc(N)c(Cl)c(Nc2ccccc2S(=O)(=O)C(C)C)n1 [HG-5-88-01] + C[C@@H](Oc1cc(-c2cnn(C3CCNCC3)c2)cnc1N)c1c(Cl)ccc(F)c1Cl [Crizotinib] (partner 1 µM)
relative viability: 1.1

Fill in relative viability for each of the 3 compounds listed.
1. C[C@@H]1CN(CC(=O)Nc2ccc3c(c2)Cc2cccc(-c4cc(=O)cc(N5CCOCC5)o4)c2S3)C[C@H](C)O1 + CS(=O)(=O)N1CCN(Cc2cc3nc(-c4cccc5[nH]ncc45)nc(N4CCOCC4)c3s2)CC1 [Pictilisib] (partner 1 µM)
2. Clc1ccc(Nc2nnc(Cc3ccncc3)c3ccccc23)cc1 [Vatalanib] + CS(=O)(=O)CCNCc1ccc(-c2ccc3ncnc(Nc4ccc(OCc5cccc(F)c5)c(Cl)c4)c3c2)o1 [Lapatinib] (partner 2 µM)
3. C[C@@H]1CN(CC(=O)Nc2ccc3c(c2)Cc2cccc(-c4cc(=O)cc(N5CCOCC5)o4)c2S3)C[C@H](C)O1 + Nc1nc2[nH]cc(CCc3ccc(C(=O)N[C@@H](CCC(=O)O)C(=O)O)cc3)c2c(=O)[nH]1 [Pemetrexed] (partner 0.2 µM)

1. 0.298
2. 0.749
3. 0.837

The following compounds each have a reported value; give each one's relative viability.
1. Clc1ccc(Nc2nnc(Cc3ccncc3)c3ccccc23)cc1 [Vatalanib] + C[C@@H](Oc1cc(-c2cnn(C3CCNCC3)c2)cnc1N)c1c(Cl)ccc(F)c1Cl [Crizotinib] (partner 1 µM)
2. Clc1ccc(Nc2nnc(Cc3ccncc3)c3ccccc23)cc1 [Vatalanib] + Nc1nc2[nH]cc(CCc3ccc(C(=O)N[C@@H](CCC(=O)O)C(=O)O)cc3)c2c(=O)[nH]1 [Pemetrexed] (partner 0.2 µM)

[0.985, 0.844]

---

Give measured relative viability for each item. Keep answers brief.
tested on: HCC-78; experiment: relative viability (nuclei count vs DMSO), 5 days (fraction); higher = more cells survive; conditions: first compound 0.08 µM

Check out these entries, answers already filled in.
compound: CCCCCCCCCCCC1=C(O)C(=O)C=C(O)C1=O [Embelin] + Cc1nc(Nc2ncc(C(=O)Nc3c(C)cccc3Cl)s2)cc(N2CCN(CCO)CC2)n1 [Dasatinib] (partner 0.075 µM)
study target: HCC-78
relative viability: 0.373
//
compound: CCCCCCCCCCCC1=C(O)C(=O)C=C(O)C1=O [Embelin] + C[C@]1(O)C[C@@H](c2nc(-c3ccc4ccc(-c5ccccc5)nc4c3)c3c(N)nccn32)C1 [Linsitinib] (partner 1 µM)
study target: HCC-78
relative viability: 0.516
//
compound: CCCCCCCCCCCC1=C(O)C(=O)C=C(O)C1=O [Embelin] + O=C(c1cc(Cc2n[nH]c(=O)c3ccccc23)ccc1F)N1CCN(C(=O)C2CC2)CC1 [Olaparib] (partner 8 µM)
study target: HCC-78
relative viability: 0.953
//
compound: CCCCCCCCCCCC1=C(O)C(=O)C=C(O)C1=O [Embelin] + N=C(N)NC(=N)NCCc1ccccc1 [Phenformin] (partner 250 µM)
study target: HCC-78
relative viability: 0.661
//
compound: CCCCCCCCCCCC1=C(O)C(=O)C=C(O)C1=O [Embelin] + CC(=O)Nc1cccc(-n2c(=O)n(C3CC3)c(=O)c3c(Nc4ccc(I)cc4F)n(C)c(=O)c(C)c32)c1 [Trametinib] (partner 0.02 µM)
study target: HCC-78
relative viability: 0.834

With those in mind, consider the next compound.
Please look up its relative viability: CCCCCCCCCCCC1=C(O)C(=O)C=C(O)C1=O [Embelin] + CS(=O)(=O)CCNCc1ccc(-c2ccc3ncnc(Nc4ccc(OCc5cccc(F)c5)c(Cl)c4)c3c2)o1 [Lapatinib] (partner 2 µM) 0.767

---

Answer each item with its documented relative viability.
tested on: NCI-H520; experiment: relative viability (nuclei count vs DMSO), 5 days (fraction); higher = more cells survive; details: first compound 2.53 µM
One number for each entry.

compound: CCCCCCCCCCCC1=C(O)C(=O)C=C(O)C1=O [Embelin] + CS(=O)(=O)CCNCc1ccc(-c2ccc3ncnc(Nc4ccc(OCc5cccc(F)c5)c(Cl)c4)c3c2)o1 [Lapatinib] (partner 2 µM)
reported measurement: 0.936

compound: CCCCCCCCCCCC1=C(O)C(=O)C=C(O)C1=O [Embelin] + Cc1nc(NC(=O)N2CCC[C@H]2C(N)=O)sc1-c1ccnc(C(C)(C)C(F)(F)F)c1 [Alpelisib] (partner 2 µM)
reported measurement: 0.896

compound: CCCCCCCCCCCC1=C(O)C(=O)C=C(O)C1=O [Embelin] + Nc1ncn([C@H]2C[C@H](O)[C@@H](CO)O2)c(=O)n1 [Decitabine] (partner 2 µM)
reported measurement: 0.552

compound: CCCCCCCCCCCC1=C(O)C(=O)C=C(O)C1=O [Embelin] + C[C@]1(O)C[C@@H](c2nc(-c3ccc4ccc(-c5ccccc5)nc4c3)c3c(N)nccn32)C1 [Linsitinib] (partner 1 µM)
reported measurement: 0.869

Could you tell me relative viability for each of these compounds? They are listed below.
1. CCCCCCCCCCCC1=C(O)C(=O)C=C(O)C1=O [Embelin] + CC(=O)Nc1cccc(-n2c(=O)n(C3CC3)c(=O)c3c(Nc4ccc(I)cc4F)n(C)c(=O)c(C)c32)c1 [Trametinib] (partner 0.02 µM)
2. CCCCCCCCCCCC1=C(O)C(=O)C=C(O)C1=O [Embelin] + CS(=O)(=O)N1CCN(Cc2cc3nc(-c4cccc5[nH]ncc45)nc(N4CCOCC4)c3s2)CC1 [Pictilisib] (partner 1 µM)
3. CCCCCCCCCCCC1=C(O)C(=O)C=C(O)C1=O [Embelin] + COc1cc2c(Oc3ccc(NC(=O)C4(C(=O)Nc5ccc(F)cc5)CC4)cc3F)ccnc2cc1OCCCN1CCOCC1 [Foretinib] (partner 0.25 µM)

1. 0.95
2. 0.418
3. 0.878
